target: Serine/threonine-protein kinase PAK 3 (Homo sapiens); test: Inhibition of PAK3-mediated MEK1 phosphorylation at Ser298 in human EBC1 cells after 2 hrs by HTRF assay; settings: pooled result: one value given for 3 cell lines, strains, targets or settings
Measured IC50, listed per entry.
Answer in µM, number only, no unit symbol.

Task item: # get_value(readout= IC50, system= Serine/threonine-protein kinase PAK 3 (Homo sapiens)) for C[C@H](Nc1nccc(Nc2cc(C3CCC3)[nH]n2)n1)c1ccc2[nH]ccc2c1
Reply: 0.133

====

target: Serine/threonine-protein kinase PAK 1 (Homo sapiens, UniProt Q13153); assay: Inhibition of human recombinant GST-tagged PAK1 kinase domain-mediated 5FAM-RRRLSFAEPG phosphorylation expressed in Sf9 cells preincubated for 10 mins prior to substrate addition measured after 30 mins by microfluidic mobility shift assay
Sequence (Q13153 whole entry, the tested form may be a part): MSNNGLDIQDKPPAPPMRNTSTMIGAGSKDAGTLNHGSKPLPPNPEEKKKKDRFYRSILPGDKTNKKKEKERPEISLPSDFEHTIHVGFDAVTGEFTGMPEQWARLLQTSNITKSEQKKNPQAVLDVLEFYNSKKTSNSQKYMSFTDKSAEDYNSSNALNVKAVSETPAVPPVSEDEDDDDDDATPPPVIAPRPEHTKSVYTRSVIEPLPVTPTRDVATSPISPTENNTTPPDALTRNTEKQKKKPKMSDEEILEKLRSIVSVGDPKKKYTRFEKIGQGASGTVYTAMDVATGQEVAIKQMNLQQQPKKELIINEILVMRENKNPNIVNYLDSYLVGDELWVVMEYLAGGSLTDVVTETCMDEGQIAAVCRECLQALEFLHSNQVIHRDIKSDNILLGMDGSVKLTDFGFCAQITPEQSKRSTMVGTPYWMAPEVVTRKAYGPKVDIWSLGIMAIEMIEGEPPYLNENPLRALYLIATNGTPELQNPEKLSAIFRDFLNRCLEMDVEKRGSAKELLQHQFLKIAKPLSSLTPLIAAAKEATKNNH
measurementType: Ki
Record the result as number plus unit.

Task item: Find the measured Ki: item C[C@H](Nc1nccc(Nc2cc(C3CC3(F)F)[nH]n2)n1)c1ccc2[nH]cnc2c1 (stereo partly specified) , target or system Serine/threonine-protein kinase PAK 1 (Homo sapiens, UniProt Q13153).
Reply: 5.13 nM

====

biological target: Serine/threonine-protein kinase PAK 3 (Homo sapiens, UniProt O75914); assay: Inhibition of PAK3-mediated MEK1 phosphorylation at Ser298 in human EBC1 cells after 2 hrs by HTRF assay; conditions: pooled result: one value given for 3 cell lines, strains, targets or settings
Sequence (O75914 whole entry): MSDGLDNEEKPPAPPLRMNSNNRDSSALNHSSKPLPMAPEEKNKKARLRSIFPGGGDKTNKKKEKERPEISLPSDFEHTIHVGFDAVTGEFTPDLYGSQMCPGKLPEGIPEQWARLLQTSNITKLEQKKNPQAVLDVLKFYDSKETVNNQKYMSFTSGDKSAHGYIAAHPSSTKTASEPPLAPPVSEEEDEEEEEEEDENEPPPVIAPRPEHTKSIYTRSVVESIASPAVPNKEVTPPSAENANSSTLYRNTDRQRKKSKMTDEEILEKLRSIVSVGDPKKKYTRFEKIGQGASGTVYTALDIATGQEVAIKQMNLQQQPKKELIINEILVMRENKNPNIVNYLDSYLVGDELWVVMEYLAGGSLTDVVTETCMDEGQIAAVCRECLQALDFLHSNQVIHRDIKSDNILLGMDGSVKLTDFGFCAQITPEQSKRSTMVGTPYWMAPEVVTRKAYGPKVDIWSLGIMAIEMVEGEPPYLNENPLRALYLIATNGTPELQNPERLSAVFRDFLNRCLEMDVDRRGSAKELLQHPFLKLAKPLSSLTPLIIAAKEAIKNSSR
Quick reference for IC50 among some compounds
Write the answer as a number in nM, unit excluded.

Solved cases below.
compound	numericValue
C[C@H](Nc1nccc(Nc2cc(C3CC3(F)F)[nH]n2)n1)c1ccc2[nH]cnc2c1 (stereo partly drawn)	244
COCCN(Cc1cc(F)cc2[nH]ncc12)c1nccc(Nc2cc(C3CC3)[nH]n2)n1	64.1

Task item: Which IC50 value belongs to CC(CO)N(Cc1cc(F)cc2[nH]ncc12)c1nccc(Nc2cc(C3CC3)[nH]n2)n1 (stereo not drawn) ?
Reply: 70.8
